- tested on: T1, human plasma kallikrein (full length, active) (human, UniProt P03952 20-390; P03952 391-638)
- T1 construct: two disulfide linked polypeptides; also called Full length pKal; pKal
- T1 sequence (P03952 20-390, chain 1 of 2): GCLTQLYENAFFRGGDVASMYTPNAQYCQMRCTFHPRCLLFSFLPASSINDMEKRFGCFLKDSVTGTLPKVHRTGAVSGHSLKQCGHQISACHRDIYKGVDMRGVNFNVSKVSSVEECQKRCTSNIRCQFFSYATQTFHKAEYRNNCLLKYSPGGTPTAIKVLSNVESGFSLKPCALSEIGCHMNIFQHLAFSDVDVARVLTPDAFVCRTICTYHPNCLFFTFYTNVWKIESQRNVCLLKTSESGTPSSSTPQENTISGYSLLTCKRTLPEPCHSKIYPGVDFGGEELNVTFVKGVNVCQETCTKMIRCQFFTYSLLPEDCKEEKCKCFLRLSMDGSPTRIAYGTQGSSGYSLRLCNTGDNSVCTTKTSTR
- T1 sequence (P03952 391-638, chain 2 of 2): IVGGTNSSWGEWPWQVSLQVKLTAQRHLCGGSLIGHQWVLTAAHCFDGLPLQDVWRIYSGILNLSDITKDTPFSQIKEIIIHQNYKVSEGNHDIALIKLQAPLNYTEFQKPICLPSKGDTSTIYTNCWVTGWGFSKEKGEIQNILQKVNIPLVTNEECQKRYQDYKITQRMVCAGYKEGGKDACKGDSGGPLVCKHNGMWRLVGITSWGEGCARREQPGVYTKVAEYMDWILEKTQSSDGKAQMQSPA
- assay method text: Ki,app: enzyme inhibition, fluorescent substrate, 2 h pre-incubation at 30 C, tight-binding fit
measured attribute: log10 of Ki (log10 of the value in nM)
Note: values are log10 of Ki expressed in nM.

{"columns": ["binder", "log10 of Ki"],
 "data": [
  ["X115-D01 (antibody, V domains shown, only variable domains given; also called 559A-X115-D01; 559A-X0115-D01) VH: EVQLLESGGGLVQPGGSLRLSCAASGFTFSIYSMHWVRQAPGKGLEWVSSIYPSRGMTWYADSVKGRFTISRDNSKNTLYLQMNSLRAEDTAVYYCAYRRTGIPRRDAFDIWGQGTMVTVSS VL: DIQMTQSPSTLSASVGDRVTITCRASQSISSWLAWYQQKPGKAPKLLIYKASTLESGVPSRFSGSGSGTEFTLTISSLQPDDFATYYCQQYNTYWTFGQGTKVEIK", -0.74],
  ["X115-F02 (Fab, V domains shown, also called 559A-X115-F02; 559A-X0115-F02) VH: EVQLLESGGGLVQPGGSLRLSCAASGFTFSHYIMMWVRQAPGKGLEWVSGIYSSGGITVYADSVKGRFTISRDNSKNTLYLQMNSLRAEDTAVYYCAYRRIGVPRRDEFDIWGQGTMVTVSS VL: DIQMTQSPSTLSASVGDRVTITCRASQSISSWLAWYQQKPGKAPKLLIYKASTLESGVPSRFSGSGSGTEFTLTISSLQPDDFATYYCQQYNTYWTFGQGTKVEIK", -1.05],
  ["M06-D09 (antibody, V domains shown, Only variable domains printed; also called M6-D09; 559A-M06-D09) VH: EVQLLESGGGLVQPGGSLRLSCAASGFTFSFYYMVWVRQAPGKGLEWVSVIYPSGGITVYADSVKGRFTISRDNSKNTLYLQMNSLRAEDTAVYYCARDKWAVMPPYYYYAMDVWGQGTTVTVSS VL: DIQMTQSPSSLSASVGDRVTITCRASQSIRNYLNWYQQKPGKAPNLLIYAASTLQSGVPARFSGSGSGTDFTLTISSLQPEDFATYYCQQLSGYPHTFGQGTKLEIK", 0.77],
  ["X115-D05 (antibody, V domains shown, only variable domains given; also called 559A-X115-D05; 559A-X0115-D05) VH: EVQLLESGGGLVQPGGSLRLSCAASGFTFSDYMMAWVRQAPGKGLEWVSSIVPSGGHTHYADSVKGRFTISRDNSKNTLYLQMNSLRAEDTAVYYCARVARGIAARSRTSYFDYWGQGTLVTVSS VL: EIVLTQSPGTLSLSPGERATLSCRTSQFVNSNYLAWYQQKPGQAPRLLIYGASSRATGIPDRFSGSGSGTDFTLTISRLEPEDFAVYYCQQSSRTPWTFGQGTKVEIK", -0.60]
]}

// log10 of Ki lookup, key: X115-G04 (antibody, V domains shown, only variable domains given; also called 559A-X115-G04; 559A-X0115-G04) VH: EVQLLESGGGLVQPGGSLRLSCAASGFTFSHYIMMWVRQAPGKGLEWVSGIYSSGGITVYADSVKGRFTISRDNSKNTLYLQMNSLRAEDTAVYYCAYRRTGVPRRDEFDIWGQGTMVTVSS VL: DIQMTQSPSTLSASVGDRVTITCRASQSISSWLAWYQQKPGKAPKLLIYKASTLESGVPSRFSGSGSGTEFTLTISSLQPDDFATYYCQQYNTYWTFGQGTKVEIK
-0.22
